Tested on: OVCAR-8 ovarian
protocol: NCI-60 one-dose screen, 48 h
measurementSetup: 10 µM unless noted
Compounds without any hit were thinned out: in the full panel of roughly 83,000, 20% have a hit. Calls of active or inactive are those of the source. The calls were made as follows: active = growth percent below 10; inactive = the rest.
Outcomes: class 1 (active), class 0 (inactive)

>>> df
                                    compound     targetsystem  discretelabel
 0  O=S(=O)(NCCCNc1nccc(-c2[nH]c(-c3ccccc3)nc2-c2ccc(F)c(O)c2)n1)c1cccc2ccccc12  OVCAR-8 ovarian        class 0
 1  Cc1ccc2c(n1)C(=O)C(Cl)=C(Nc1ccc(C(F)(F)F)cc1)C2=O  OVCAR-8 ovarian        class 0
 2  C#C[C@]1(O)CC[C@H]2[C@@H]3CC=C4c5sc(Nc6ccc(C)cn6)nc5CC[C@]4(C)[C@H]3CC[C@@]21C  OVCAR-8 ovarian        class 0
 3  C=CCSC1=NC2C(N(CC)C(=O)N2CC)N1/N=C/C=C/c1ccccc1OC (configuration not stated)  OVCAR-8 ovarian        class 0
 4  CCN(CC)CCOc1ccc(C(=C(C)Cc2ccc(OC)cc2)c2ccc(OCCN(CC)CC)cc2)cc1  OVCAR-8 ovarian        class 0
 5  C/C(=C(/C)C1CC1CCNC1CCC(NC(=O)OC(C)(C)C)CC1)c1ccccc1 (configuration not stated)  OVCAR-8 ovarian        class 0
 6  COc1ccc([C@H]2C(=O)N(c3cc(OC)c(OC)c(OC)c3)[C@@H]2c2ccc(OC)c(O)c2)cc1  OVCAR-8 ovarian        class 1
 7  CN(C)S(=O)(=O)c1ccc(-c2nc(C(Cl)Cl)nc3cc(-c4ccccc4)nn23)cc1  OVCAR-8 ovarian        class 0
 8  N#Cc1c(-c2cccs2)c(C#N)c(=O)n(Cc2nc3ccccc3[nH]2)c1N  OVCAR-8 ovarian        class 0
 9  CC1(C)CC[C@]2(C(=O)NCCCCCCN(CCCN)CCCN)CC[C@]3(C)C(=CC[C@@H]4[C@@]5(C)CC[C@H](O)C(C)(C)[C@@H]5CC[C@]43C)[C@@H]2C1  OVCAR-8 ovarian        class 0
10  CN1CCN(c2ccc(Nc3nc(NCCNS(=O)(=O)c4ccc5ccccc5c4)c4sccc4n3)cc2)CC1  OVCAR-8 ovarian        class 0
11  C=C(C)[C@@H]1CC[C@]2(C(=O)O)CC[C@]3(C)[C@H](CC[C@@H]4[C@@]5(C)C/C(=C/c6ccccn6)C(=O)C(C)(C)[C@@H]5CC[C@]43C)[C@@H]12  OVCAR-8 ovarian        class 0
12        Cc1ccc(-c2csc(N/N=C/c3cccs3)n2)cc1  OVCAR-8 ovarian        class 0
13  CCc1cccc2c3c(sc12)C(c1ccc(F)cc1)C(C#N)=C(/N=C/c1ccc(Cl)cc1)O3 (configuration not stated)  OVCAR-8 ovarian        class 0
14  CCN(CC)c1ccc(/C=N/NC(=O)c2ccc(S(N)(=O)=O)cc2)c(O)c1  OVCAR-8 ovarian        class 0
15  CCN1CCN(c2ccc(NC(=O)Nc3ccc4c(ccn4-c4ccnc(C(=O)NC)c4)c3)cc2C(F)(F)F)CC1  OVCAR-8 ovarian        class 0
16  COc1ccc2c(c1)C=CC1(O2)Oc2ccc(OC)cc2C=C1C (configuration not stated)  OVCAR-8 ovarian        class 0
